Examples of molecules with documented CD28 Fold change to WT CD80 follow.
Molecular target: CD28 (Homo sapiens, UniProt P10747)
Assay: Flow binding to Jurkat/IL2 reporter cells (CD28)
Design: host or cells: Jurkat cells expressing an IL-2-luciferase reporter
Details: Table E19; MFI at 33.3 nM relative to WT CD80 ECD-Fc (Abcam)
Write the answer as a number in fold, unit excluded.

{"MOLECULE": "E35D/D46V/M47L/V68M/L85Q (protein) VIHVTKEVKEVATLSCGHNVSVEELAQTRIYWQKDKKMVLTMMSGVLNIWPEYKNRTIFDITNNLSIMILALRPSDEGTYECVVQKYEKDAFKREHLAEVTLSVKAD", "READOUT_LABEL": "CD28 Fold change to WT CD80", "UNIT_ABBREV": "fold", "RECORDED_RESULT": 0.7}
{"MOLECULE": "D46V/V68M (protein) VIHVTKEVKEVATLSCGHNVSVEELAQTRIYWQKEKKMVLTMMSGVMNIWPEYKNRTIFDITNNLSIMILALRPSDEGTYECVVLKYEKDAFKREHLAEVTLSVKAD", "READOUT_LABEL": "CD28 Fold change to WT CD80", "UNIT_ABBREV": "fold", "RECORDED_RESULT": 0.8}
{"MOLECULE": "E35D/M47L/V68M (protein) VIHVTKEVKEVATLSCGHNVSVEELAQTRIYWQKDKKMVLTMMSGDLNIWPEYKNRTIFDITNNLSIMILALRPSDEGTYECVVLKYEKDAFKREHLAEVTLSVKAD", "READOUT_LABEL": "CD28 Fold change to WT CD80", "UNIT_ABBREV": "fold", "RECORDED_RESULT": 1.8}

Consider now this further molecule.
Input line: Return reported CD28 Fold change to WT CD80; argument: E35D/M47V (protein) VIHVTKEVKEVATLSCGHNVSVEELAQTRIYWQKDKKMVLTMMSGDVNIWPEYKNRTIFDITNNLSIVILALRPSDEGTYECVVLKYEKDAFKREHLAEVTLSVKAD
Output line: 0.7

FYI, the data here is from patent US20220177587A1.
